Reference source for all entries: patent US20240308998A1

Target: BRD4 BD1 (Homo sapiens)
Construct: HEK293 cells were transfected using NanoLuc-BRD4-BD1 or NanoLuc-BRD4-BD2 fusion vectors
Assay: NanoBRET bromodomain assay, BRD4 BD1
Conditions: HEK293 cells transfected with NanoLuc-BRD4-BD1
IC50 by entry:
Outcome measure: IC50

> print(dat)
                            chemical.smiles          result
1  Cc1cc(-c2cc3c(-c4cc(=O)n(C)cc4C4CCCC4)cn(C)c(=O)c3[nH]2)cc(C)n1    50 to 500 nM
2  Cc1cccc(C)c1Oc1cn(C)c(=O)cc1-c1cn(C)c(=O)c2[nH]c(-c3ccc(F)cc3F)cc12       > 1000 nM
3  Cc1cccc(C)c1Oc1cn(C)c(=O)cc1-c1cn(C)c(=O)c2[nH]c(-c3ccccc3)cc12       > 1000 nM
4  Cc1cc(-c2cc3c(-c4cc(=O)n(C)cc4Oc4c(C)cccc4C)cn(C)c(=O)c3[nH]2)ccn1  500 to 1000 nM
5  Cc1cccc(C)c1Oc1cn(C)c(=O)cc1-c1cn(C)c(=O)c2[nH]c(-c3ncc(C(F)(F)F)[nH]3)cc12       > 1000 nM
6  CC(C)n1cc(-c2cc3c(-c4cc(=O)n(C)cc4C4CCCC4)cn(C)c(=O)c3[nH]2)cn1    50 to 500 nM
7  Cc1cc(-c2cc3c(-c4cc(=O)n(C)cc4-c4ccccc4)cn(C)c(=O)c3[nH]2)n(C)n1       > 1000 nM
8  Cc1cccc(C)c1Oc1cn(C)c(=O)cc1-c1cn(C)c(=O)c2[nH]c(-c3ccc(C#N)cc3)cc12       > 1000 nM

* * *

Biological target: BRD4 BD2 (Homo sapiens)
Construct: HEK293 cells were transfected using NanoLuc-BRD4-BD1 or NanoLuc-BRD4-BD2 fusion vectors
Experiment: NanoBRET bromodomain assay, BRD4 BD2
Details: NanoBRET, HEK293 cells transfected with NanoLuc-BRD4-BD2
Protocol: HEK293 cells were transfected using NanoLuc-BRD4-BD1 or NanoLuc-BRD4-BD2 fusion vectors and incubated at 37° C. in an atmosphere of 5% CO2 for 20-24 hours. […] Donor emission (450 nm) and acceptor emission (610 nm) were measured using PHERAstar (BMG LabTech). […] The mBU data was plotted as a function of compound concentration and IC50s for BRET assay were determined by nonlinear regression analysis of concentration response curves using the GraphPad Prism software. […]
Outcome measure: IC50

> print(dat)
                            chemical.smiles          measured.target  outcome.measure        result
1  Cc1cccc(C)c1Oc1cn(C)c(=O)cc1-c1cn(C)c(=O)c2[nH]c(-c3ccccc3)cc12  BRD4 BD2 (Homo sapiens)             IC50  50 to 200 nM
2  Cc1cccc(C)c1Oc1cn(C)c(=O)cc1-c1cn(C)c(=O)c2[nH]c(-c3cnn(C)c3C)cc12  BRD4 BD2 (Homo sapiens)             IC50       ≤ 50 nM
3  Cc1cccc(C)c1Oc1cn(C)c(=O)cc1-c1cn(C)c(=O)c2[nH]c(-c3cn(C(C)C)nc3C)cc12  BRD4 BD2 (Homo sapiens)             IC50       ≤ 50 nM
4  Cc1cccc(C)c1Oc1cn(C)c(=O)cc1-c1cn(C)c(=O)c2[nH]c(-c3ccc(=O)n(C)c3)cc12  BRD4 BD2 (Homo sapiens)             IC50  50 to 200 nM
5  Cc1cccc(C)c1Oc1cn(C)c(=O)cc1-c1cn(C)c(=O)c2[nH]c(-c3cncnc3)cc12  BRD4 BD2 (Homo sapiens)             IC50  50 to 200 nM

* * *

IC50 by entry:
Molecular target: BRD4 BD2 (Homo sapiens, UniProt O60885)
Construct: HEK293 cells were transfected using NanoLuc-BRD4-BD1 or NanoLuc-BRD4-BD2 fusion vectors
Experiment: NanoBRET bromodomain assay, BRD4 BD2
Settings: NanoBRET, HEK293 cells transfected with NanoLuc-BRD4-BD2
Description: HEK293 cells were transfected using NanoLuc-BRD4-BD1 or NanoLuc-BRD4-BD2 fusion vectors and incubated at 37° C. in an atmosphere of 5% CO2 for 20-24 hours. […] Donor emission (450 nm) and acceptor emission (610 nm) were measured using PHERAstar (BMG LabTech). […] The mBU data was plotted as a function of compound concentration and IC50s for BRET assay were determined by nonlinear regression analysis of concentration response curves using the GraphPad Prism software. […]
Outcome measure: IC50

> print(dat)
                            chemical.smiles          result
1  Cc1cccc(C)c1Oc1cn(C2CNC2)c(=O)cc1-c1cn(C)c(=O)c2[nH]c(-c3cnn(C(C)C)c3C)cc12          > 1 µM
2  Cc1cc(-c2cc3c(-c4cc(=O)n(C5CC5)cc4Oc4c(C)cccc4C)cn(C)c(=O)c3[nH]2)cc(C)n1       ≤ 0.05 µM
3  Cc1cccc(C)c1Oc1cn(C)c(=O)cc1-c1cn(C)c(=O)c2[nH]c(-c3cnn[nH]3)cc12  0.05 to 0.2 µM
4  Cc1cc(-c2cc3c(-c4cc(=O)n(C)cc4Oc4c(C)cccc4C)cn(C)c(=O)c3[nH]2)cc(C)n1       ≤ 0.05 µM
5  Cc1cccc(C)c1Oc1cn(C)c(=O)cc1-c1cn(C)c(=O)c2[nH]c(-c3ccccc3F)cc12       ≤ 0.05 µM

* * *

Assay: Balb/c mouse pharmacokinetics after oral (PO) dosing
Type: in vivo
Details: male, plasma, 5 mg/kg, Casette
Description: Compounds were formulated in 5% DMSO, 40% PEG-400, 55% Milli-Q water at a concentration of 0.5 mg/mL for 5 mg/kg and 3 mg/mL for 30 mg/kg PO dosing. […] Blood was sampled at various timepoints and plasma isolated. […] 20 μL of diluted supernatant was injected into the LC/MS/MS system for quantitative analysis and concentration of analyte determined by comparison with matrix matched standard curve. […]
Outcome measure: bioavailability (%)

> print(dat)
                                   molecule  result.number
1  Cc1cc(-c2cc3c(-c4cc(=O)n(C)cc4-c4ccccc4)cn(C)c(=O)c3[nH]2)n(C)n1 [Example 60]           59.9
2  Cn1cc(-c2ccccc2)c(-c2cn(C)c(=O)c3[nH]c(-c4ccccc4)cc23)cc1=O [Example 63]           86.5
3  Cc1cc(-c2cc3c(-c4cc(=O)n(C)cc4-c4ccccc4)cn(C)c(=O)c3[nH]2)cc(C)n1 [Example 62]           88.7
4  Cc1cccc(C)c1Oc1cn(C)c(=O)cc1-c1cn(C)c(=O)c2[nH]c(-c3cccc(F)c3F)cc12 [Example 50]             73
5  Cc1cccc(C)c1Oc1cn(C)c(=O)cc1-c1cn(C)c(=O)c2[nH]c(-c3ccc(=O)n(C)c3)cc12 [Example 51]           6.83

* * *

Target: BRD4 BD2 (Homo sapiens)
Construct: HEK293 cells were transfected using NanoLuc-BRD4-BD1 or NanoLuc-BRD4-BD2 fusion vectors; host or cells: HEK293
Assay: NanoBRET bromodomain assay, BRD4 BD2
Format: cell-based
Conditions: IC50 BD1/IC50 BD2
Outcome measure: Fold selectivity BRD4 BD1/BD2

> print(dat)
                            chemical.smiles                outcome.measure                  result
1  Cn1cc(C2CCCC2)c(-c2cn(C)c(=O)c3[nH]c(-c4ccccc4)cc23)cc1=O  Fold selectivity BRD4 BD1/BD2     x (Fold >2 and ≤50)
2  Cc1cccc(C)c1Oc1cn(C)c(=O)cc1-c1cn(C)c(=O)c2[nH]c(-c3ccccc3)cc12  Fold selectivity BRD4 BD1/BD2  xx (Fold >50 and ≤200)
3  Cc1cccc(C)c1Oc1cn(C2CNC2)c(=O)cc1-c1cn(C)c(=O)c2[nH]c(-c3cn(C(C)C)nc3C)cc12  Fold selectivity BRD4 BD1/BD2  xx (Fold >50 and ≤200)
4  Cc1ccccc1-c1cc2c(-c3cc(=O)n(C)cc3Oc3c(C)cccc3C)cn(C)c(=O)c2[nH]1  Fold selectivity BRD4 BD1/BD2     x (Fold >2 and ≤50)
5  Cc1cnc(-c2cc3c(-c4cc(=O)n(C)cc4-c4ccccc4)cn(C)c(=O)c3[nH]2)[nH]1  Fold selectivity BRD4 BD1/BD2  xx (Fold >50 and ≤200)
6  Cc1cccc(C)c1Oc1cn(C)c(=O)cc1-c1cn(C)c(=O)c2[nH]c(-c3cn(C(C)C)nc3C#N)cc12  Fold selectivity BRD4 BD1/BD2  xx (Fold >50 and ≤200)
